The reported measurements were obtained from patent US4868181A.

Measured on: Ca^2 + channels (Rattus norvegicus)
Construct: rat cardiac microsomes (source of Ca^2 + channels)
Test summary: [^3 H]-Nitrendipine binding assay (affinity for calcium channels)
Settings: rat cardiac microsomes, 0.5 nM [^3 H]-nitrendipine, 60 minutes at 25°
Label YES when IC50 < 2000 nM; otherwise NO.

Use the examples below as a reference point.
COC(=O)C1=C(C)NC(C)=C([N+](=O)[O-])C1c1ccccc1OCCCCCCN1CCN(c2ccccc2OC)CC1 (centres unmarked) :: YES
COC(=O)C1=C(C)NC(C)=C([N+](=O)[O-])C1c1cc(OC)ccc1OCCCCCN1CCN(c2ccccc2OC)CC1 (centres unmarked) :: YES

In: Consider CCOC(=O)C1=C(C)NC(C)=C([N+](=O)[O-])C1c1cccc(OCCCN2CCN(c3ccccc3OC)CC2)c1 (centres unmarked) . Does its IC50 lie strictly below 2000 nM?
Out: NO

In: Check if IC50 falls below 2000 nM for COc1ccccc1N1CCN(CCCCOc2ccccc2C2C(C(=O)OC(C)C)=C(C)NC(C)=C2[N+](=O)[O-])CC1 (centres unmarked) .
Out: YES

In: Does COC(=O)C1=C(C)NC(C)=C([N+](=O)[O-])C1c1ccc(OCCCN2CCN(c3ccccc3OC)CC2)c([N+](=O)[O-])c1 (centres unmarked) have IC50 strictly under 2000 nM?
Out: NO

In: Report whether reported IC50 is lower than 2000 nM (strictly) for CCOc1cccc(C2C(C(=O)OC)=C(C)NC(C)=C2[N+](=O)[O-])c1OCCCCCN1CCN(c2ccccc2OC)CC1 (centres unmarked)
Out: YES

In: Say whether its IC50 is strictly beneath 2000 nM. Entry: COC(=O)C1=C(C)NC(C)=C([N+](=O)[O-])C1c1cccc(OCCCCCN2CCN(c3ccccc3OC)CC2)c1 (centres unmarked)
Out: NO

----------
Measured on: alpha1 -adrenoceptors
Test summary: [^3 H]-prazosin binding assay (affinity for alpha1-adrenoceptors)
Settings: rat brain membranes, 0.2 nM [^3 H]-prazosin, 60 minutes at 25°
pIC50: −log10 of the molar value.
Classify as follows. Reported pIC50 greater than or equal to 6: Fulfilled. Reported pIC50 below: Not fulfilled.

In: Determine whether measured pIC50 meets or exceeds 6 for COC(=O)C1=C(C)NC(C)=C([N+](=O)[O-])C1c1cccc(OCC=CCN2CCN(c3ccccc3OC)CC2)c1 (stereo not shown)
Out: Fulfilled

In: Hi team, for COC(=O)C1=C(C)NC(C)=C([N+](=O)[O-])C1c1cccc(OC)c1OCCCCCN1CCN(c2ccccc2OC)CC1 (stereo not shown) , is the recorded pIC50 at or above 6?
Out: Fulfilled

In: Check if pIC50 >= 6 (inclusive). Item: COC(=O)C1=C(C)NC(C)=C([N+](=O)[O-])C1c1cccc(OCCCCCN2CCN(c3ccccc3OC)CC2)c1[N+](=O)[O-] (stereo not shown)
Out: Fulfilled

In: Is pIC50 at least 6? Consider COC(=O)C1=C(C)NC(C)=C([N+](=O)[O-])C1c1ccccc1OCCCCN1CCN(c2ccccn2)CC1 (stereo not shown)
Out: Fulfilled

In: Given COC(=O)C1=C(C)NC(C)=C([N+](=O)[O-])C1c1ccccc1OCCCN1CCN(c2ccccc2C(F)(F)F)CC1 (stereo not shown) , state whether its pIC50 is at least 6.
Out: Not fulfilled

----------
Test system: guinea pig left atria
Test summary: Positive inotropic effect in guinea pig left atria
Settings: left atria paced at 2Hz, 37°, cumulative addition to maximum 10^-4; read-out: EC50 (concentration that increases DT by 50% above the control DT)
Experimental readout: pEC50
Scale note: pEC50 = -log10(concentration in M).

Observe how each entry below is paired with its result.
COC(=O)C1=C(C)NC(C)=C([N+](=O)[O-])C1c1ccccc1OCCCCN1CCN(c2ncccn2)CC1 (centres unmarked) [Example 60] :: 6.00
COC(=O)C1=C(C)NC(C)=C([N+](=O)[O-])C1c1ccccc1OCCCCCCN1CCN(c2ccccc2OC)CC1 (centres unmarked) [Example 129] :: 5.70
COC(=O)C1=C(C)NC(C)=C([N+](=O)[O-])C1c1ccccc1OCCN1CCN(c2ccccc2OC)CC1 (centres unmarked) [Example 58] :: 5.72
COc1cccc(OC)c1OCCNCCOC(=O)C1=C(C)NC(C)=C([N+](=O)[O-])C1c1ccccc1C(F)(F)F (centres unmarked) [Example 13] :: 4.52
COc1ccccc1N1CCN(CCOC(=O)C2=C(C)NC(C)=C([N+](=O)[O-])C2c2ccccc2Cl)CC1 (centres unmarked) [Example 5] :: 6.25
COC(=O)C1=C(C)NC(C)=C([N+](=O)[O-])C1c1ccccc1OCCCCN1CCN(c2ccccc2OC)CC1 (centres unmarked) [Example 105] :: 5.52

In: Record lookup: for guinea pig left atria, what pEC50 belongs to COC(=O)C1=C(C)NC(C)=C([N+](=O)[O-])C1c1ccccc1OCCCCCN1CCN(c2ccccc2OC)CC1 (centres unmarked) [Example 59] ?
Out: 6.00

----------
# pIC50 listing for each entry below
Measured on: Ca^2 + channels (Rattus norvegicus, UniProt P22002)
Construct: rat cardiac microsomes (source of Ca^2 + channels)
Sequence (P22002 whole entry, other chains not shown): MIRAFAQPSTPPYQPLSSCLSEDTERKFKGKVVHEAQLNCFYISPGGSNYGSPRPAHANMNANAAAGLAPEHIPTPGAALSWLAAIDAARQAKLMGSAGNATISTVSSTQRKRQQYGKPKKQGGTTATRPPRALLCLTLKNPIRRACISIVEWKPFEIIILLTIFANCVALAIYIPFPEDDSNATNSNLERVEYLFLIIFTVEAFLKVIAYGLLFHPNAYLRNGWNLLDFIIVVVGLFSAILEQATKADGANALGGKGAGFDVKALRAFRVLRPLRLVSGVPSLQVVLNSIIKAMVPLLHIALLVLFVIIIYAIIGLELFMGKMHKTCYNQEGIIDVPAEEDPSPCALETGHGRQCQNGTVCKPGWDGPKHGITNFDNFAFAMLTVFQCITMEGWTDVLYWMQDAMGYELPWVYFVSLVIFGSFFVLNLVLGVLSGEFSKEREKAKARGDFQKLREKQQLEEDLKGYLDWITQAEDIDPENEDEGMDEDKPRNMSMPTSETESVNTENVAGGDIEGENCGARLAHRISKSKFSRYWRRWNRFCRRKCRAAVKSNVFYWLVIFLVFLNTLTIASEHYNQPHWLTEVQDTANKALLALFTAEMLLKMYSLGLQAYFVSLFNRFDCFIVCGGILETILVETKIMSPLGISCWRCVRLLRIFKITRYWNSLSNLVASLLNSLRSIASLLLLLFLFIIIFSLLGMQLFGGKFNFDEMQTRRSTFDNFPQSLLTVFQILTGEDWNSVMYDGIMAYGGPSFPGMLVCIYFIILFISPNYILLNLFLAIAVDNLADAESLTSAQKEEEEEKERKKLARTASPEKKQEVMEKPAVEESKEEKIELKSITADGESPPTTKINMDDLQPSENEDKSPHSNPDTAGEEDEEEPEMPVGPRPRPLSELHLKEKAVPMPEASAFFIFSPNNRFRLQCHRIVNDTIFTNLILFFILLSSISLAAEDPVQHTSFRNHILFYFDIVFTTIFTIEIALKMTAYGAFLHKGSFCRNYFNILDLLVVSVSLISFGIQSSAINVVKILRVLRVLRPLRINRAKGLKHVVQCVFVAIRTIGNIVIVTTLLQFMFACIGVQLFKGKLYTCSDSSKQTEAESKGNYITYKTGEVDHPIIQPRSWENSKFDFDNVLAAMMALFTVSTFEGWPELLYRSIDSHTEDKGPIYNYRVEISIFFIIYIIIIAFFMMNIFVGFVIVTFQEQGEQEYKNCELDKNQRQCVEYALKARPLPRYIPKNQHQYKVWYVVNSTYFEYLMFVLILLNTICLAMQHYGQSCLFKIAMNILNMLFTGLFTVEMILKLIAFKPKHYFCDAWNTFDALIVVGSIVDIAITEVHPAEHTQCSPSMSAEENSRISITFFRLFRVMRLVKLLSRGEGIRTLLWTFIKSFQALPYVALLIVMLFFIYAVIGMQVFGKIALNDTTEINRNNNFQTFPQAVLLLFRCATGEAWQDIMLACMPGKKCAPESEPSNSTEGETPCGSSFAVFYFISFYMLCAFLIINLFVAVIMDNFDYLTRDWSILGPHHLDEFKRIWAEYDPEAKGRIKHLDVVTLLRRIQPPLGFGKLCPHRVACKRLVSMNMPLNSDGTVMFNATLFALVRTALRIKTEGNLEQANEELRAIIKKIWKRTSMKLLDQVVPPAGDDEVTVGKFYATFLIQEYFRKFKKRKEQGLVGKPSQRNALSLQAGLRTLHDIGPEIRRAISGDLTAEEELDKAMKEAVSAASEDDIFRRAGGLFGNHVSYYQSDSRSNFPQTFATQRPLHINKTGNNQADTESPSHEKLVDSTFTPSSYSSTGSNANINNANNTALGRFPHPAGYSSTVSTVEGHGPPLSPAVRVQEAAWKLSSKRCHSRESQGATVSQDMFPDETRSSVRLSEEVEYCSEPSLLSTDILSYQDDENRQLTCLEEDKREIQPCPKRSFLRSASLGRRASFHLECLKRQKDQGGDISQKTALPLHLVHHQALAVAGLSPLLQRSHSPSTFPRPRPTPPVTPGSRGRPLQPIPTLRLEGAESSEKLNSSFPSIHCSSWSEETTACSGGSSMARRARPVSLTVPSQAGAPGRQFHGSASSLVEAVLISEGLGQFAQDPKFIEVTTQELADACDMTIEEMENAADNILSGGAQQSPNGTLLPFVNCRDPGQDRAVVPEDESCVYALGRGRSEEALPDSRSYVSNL
Sequence (P54290 25-944 partner limits assumed, other chains not shown): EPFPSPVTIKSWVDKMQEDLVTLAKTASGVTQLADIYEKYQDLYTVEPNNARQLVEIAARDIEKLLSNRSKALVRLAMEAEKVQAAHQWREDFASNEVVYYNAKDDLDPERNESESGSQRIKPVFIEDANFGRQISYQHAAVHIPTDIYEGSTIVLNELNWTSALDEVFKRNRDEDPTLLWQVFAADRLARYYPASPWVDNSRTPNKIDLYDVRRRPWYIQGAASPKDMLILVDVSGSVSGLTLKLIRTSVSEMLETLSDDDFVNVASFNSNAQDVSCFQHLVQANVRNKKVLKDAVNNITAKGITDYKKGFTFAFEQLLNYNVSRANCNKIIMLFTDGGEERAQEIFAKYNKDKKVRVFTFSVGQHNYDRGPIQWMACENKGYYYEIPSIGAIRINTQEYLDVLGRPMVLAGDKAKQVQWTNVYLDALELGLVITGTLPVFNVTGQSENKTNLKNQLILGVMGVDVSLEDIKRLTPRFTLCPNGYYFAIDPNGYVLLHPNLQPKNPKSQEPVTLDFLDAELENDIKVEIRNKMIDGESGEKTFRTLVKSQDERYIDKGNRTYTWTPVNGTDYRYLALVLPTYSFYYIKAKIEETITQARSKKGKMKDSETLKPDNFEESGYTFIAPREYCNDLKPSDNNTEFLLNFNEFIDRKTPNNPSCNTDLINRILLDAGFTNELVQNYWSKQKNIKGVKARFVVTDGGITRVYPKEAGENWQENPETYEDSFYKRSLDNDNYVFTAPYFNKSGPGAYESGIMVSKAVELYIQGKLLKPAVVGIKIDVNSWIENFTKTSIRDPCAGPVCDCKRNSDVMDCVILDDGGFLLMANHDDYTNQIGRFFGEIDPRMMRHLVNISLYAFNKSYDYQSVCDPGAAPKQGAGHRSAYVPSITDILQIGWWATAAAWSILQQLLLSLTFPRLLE
Sequence (P54290 945-1091 partner limits assumed, other chains not shown): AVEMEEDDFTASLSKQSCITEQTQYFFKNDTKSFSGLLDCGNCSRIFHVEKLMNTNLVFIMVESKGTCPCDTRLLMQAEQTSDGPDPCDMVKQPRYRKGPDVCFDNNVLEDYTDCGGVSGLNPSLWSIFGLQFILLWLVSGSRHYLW
Test summary: [^3 H]-Nitrendipine binding assay (affinity for calcium channels)
Settings: rat cardiac microsomes, 0.5 nM [^3 H]-nitrendipine, 60 minutes at 25°
Lab note: report pIC50 as minus log10 of the concentration in molar units, number only.

COC(=O)C1=C(C)NC(C)=C([N+](=O)[O-])C1c1cccc(OC)c1OCCN1CCN(c2ccccc2OC)CC1 (stereo not drawn) :: 5.54
COC(=O)C1=C(C)NC(C)=C([N+](=O)[O-])C1c1cccc(OC)c1OCCCCCN1CCN(c2ccccc2OC)CC1 (stereo not drawn) :: 6.07
COc1ccccc1N1CCN(CCCCOc2ccccc2C2C(C(=O)Nc3ccccc3)=C(C)NC(C)=C2[N+](=O)[O-])CC1 (stereo not drawn) :: 3.96
COC(=O)C1=C(C)NC(C)=C([N+](=O)[O-])C1c1cccc(OC)c1OC/C=C\CN1CCN(c2ccccc2OC)CC1 (stereo not drawn) :: 5.80
COc1cccc(OC)c1OCCNCCOC(=O)C1=C(C)NC(C)=C([N+](=O)[O-])C1c1ccccc1C(F)(F)F (stereo not drawn) :: 6.08
COc1ccccc1N1CCN(CCCCOC(=O)C2=C(C)NC(C)=C([N+](=O)[O-])C2c2ccccc2C(F)(F)F)CC1 (stereo not drawn) :: 6.52
COC(=O)C1=C(C)NC(C)=C([N+](=O)[O-])C1c1cccc(OCCN2CCN(c3ccccc3OC)CC2)c1 (stereo not drawn) :: 5.34
C=CCc1cccc(C2C(C(=O)OC)=C(C)NC(C)=C2[N+](=O)[O-])c1OCCCCN1CCN(c2ccccc2OC)CC1 (stereo not drawn) :: 5.89
COC(=O)C1=C(C)NC(C)=C([N+](=O)[O-])C1c1ccccc1OCCCN1CCN(c2ccccc2C(F)(F)F)CC1 (stereo not drawn) :: 6.70
COC(=O)C1=C(C)NC(C)=C([N+](=O)[O-])C1c1ccccc1OCCCCN1CCN(c2ccccn2)CC1 (stereo not drawn) :: 6.24

In: Reported pIC50 for COC(=O)C1=C(C)NC(C)=C([N+](=O)[O-])C1c1ccccc1OCCCCCN1CCN(c2ccccc2OC)CC1 (stereo not drawn) : what is it?
Out: 6.54

In: // lookup pIC50 for COC(=O)C1=C(C)NC(C)=C([N+](=O)[O-])C1c1cccc([N+](=O)[O-])c1OCCCCCN1CCN(c2ccccc2OC)CC1 (stereo not drawn)
Out: 6.80

In: Data request, read-out pIC50, for COC(=O)C1=C(C)NC(C)=C([N+](=O)[O-])C1c1cccc(OCCCN2CCN(c3ccccn3)CC2)c1 (stereo not drawn)
Out: 5.24

In: # get_value(readout='pIC50', item= COC(=O)C1=C(C)NC(C)=C([N+](=O)[O-])C1c1cc(OC)ccc1OCCCCN1CCN(c2ccccc2OC)CC1 (stereo not drawn) )
Out: 6.16

In: Request the reported pIC50 associated with COC(=O)C1=C(C)NC(C)=C([N+](=O)[O-])C1c1cccc(OCCCN2CCN(c3ccccc3OC)CC2)c1 (stereo not drawn)
Out: 5.40

In: What value of pIC50 has been reported for the following compound? COC(=O)C1=C(C)NC(C)=C([N+](=O)[O-])C1c1ccccc1OCCCCCCCCCCN1CCN(c2ccccc2OC)CC1 (stereo not drawn)
Out: 7.17

In: Quick check: pIC50 of COC(=O)C1=C(C)NC(C)=C([N+](=O)[O-])C1c1cccc(OC)c1OCCCCN1CCN(c2ccccc2OC)CC1 (stereo not drawn) ?
Out: 6.00

In: Bench note: what pIC50 did COC(=O)C1=C(C)NC(C)=C([N+](=O)[O-])C1c1cccc(OCCCN2CCN(C(c3ccc(F)cc3)c3ccc(F)cc3)CC2)c1 (stereo not drawn) show?
Out: 5.77

In: Would you kindly share the measured pIC50 for COC(=O)C1=C(C)NC(C)=C([N+](=O)[O-])C1c1ccccc1OCCCN1CCN(c2ccccc2OC)CC1 (stereo not drawn) ?
Out: 5.32

In: Query: pIC50; subject: COC(=O)C1=C(C)NC(C)=C([N+](=O)[O-])C1c1ccccc1OCCCCN1CCN(c2ccccc2C)CC1 (stereo not drawn)
Out: 6.27

In: // pIC50 lookup, key: COC(=O)C1=C(C)NC(C)=C([N+](=O)[O-])C1c1ccccc1OCCCCN1CCN(c2ccccc2OC)CC1 (stereo not drawn)
Out: 6.66

In: Entry COC(=O)C1=C(C)NC(C)=C([N+](=O)[O-])C1c1cc(Cl)cc(Cl)c1OCCCCCN1CCN(c2ccccc2OC)CC1 (stereo not drawn) : reported pIC50 = ?
Out: 6.20

In: Need pIC50, item COC(=O)C1=C(C)NC(C)=C([N+](=O)[O-])C1c1cccc(OCCCCCN2CCN(c3ccccc3OC)CC2)c1[N+](=O)[O-] (stereo not drawn)
Out: 5.33

In: Record request: pIC50 value, item COC(=O)C1=C(C)NC(C)=C([N+](=O)[O-])C1c1cccc(OC)c1OCCCN1CCN(c2ccccc2OC)CC1 (stereo not drawn)
Out: 6.60

In: Could you tell me which pIC50 is on file for CCOC(=O)C1=C(C)NC(C)=C([N+](=O)[O-])C1c1cccc(OCCCN2CCN(c3ccccn3)CC2)c1 (stereo not drawn) ?
Out: 5.30

In: Returns the measured pIC50 for the input compound. Input: COC(=O)C1=C(C)NC(C)=C([N+](=O)[O-])C1c1cc(OCCN2CCN(c3ccccc3OC)CC2)ccc1[N+](=O)[O-] (stereo not drawn)
Out: 4.80
